Data origin: paper PMC11162469

subject_of_test: RXFP2 (Homo sapiens)
Sequence (Q8WXD0 whole entry): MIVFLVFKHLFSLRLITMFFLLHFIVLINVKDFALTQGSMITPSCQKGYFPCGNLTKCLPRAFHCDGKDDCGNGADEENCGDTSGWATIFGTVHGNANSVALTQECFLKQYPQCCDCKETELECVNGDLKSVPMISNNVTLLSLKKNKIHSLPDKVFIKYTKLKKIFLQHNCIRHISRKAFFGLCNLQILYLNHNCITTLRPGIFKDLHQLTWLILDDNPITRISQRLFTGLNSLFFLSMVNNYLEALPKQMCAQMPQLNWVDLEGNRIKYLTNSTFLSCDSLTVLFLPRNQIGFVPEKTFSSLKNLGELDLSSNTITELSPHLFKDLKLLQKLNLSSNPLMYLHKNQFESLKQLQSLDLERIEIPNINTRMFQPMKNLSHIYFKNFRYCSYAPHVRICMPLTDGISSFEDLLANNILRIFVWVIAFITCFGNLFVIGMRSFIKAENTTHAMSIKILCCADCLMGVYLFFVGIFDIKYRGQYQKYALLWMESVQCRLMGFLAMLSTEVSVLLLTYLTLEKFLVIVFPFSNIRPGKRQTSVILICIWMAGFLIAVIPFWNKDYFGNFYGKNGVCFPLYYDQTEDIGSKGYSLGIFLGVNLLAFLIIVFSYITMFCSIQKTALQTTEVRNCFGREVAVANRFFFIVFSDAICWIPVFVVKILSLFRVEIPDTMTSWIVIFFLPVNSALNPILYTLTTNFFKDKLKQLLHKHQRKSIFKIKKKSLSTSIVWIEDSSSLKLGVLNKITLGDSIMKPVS
method_description: cell-based
Bridge positions count the residues as written; N and C are the ends. Ends that are not written are not given here. I, II: the chains in the order shown.
parameter_measured: pEC50
Just so you know, pEC50 here is -log10 of the concentration in molar units; reply with that number alone.

Prompt line: Fill in the blank: the reported pEC50 of I: PTPEMREKLCGHHFVRALVRVCGGPRWSTEA / II: AAATNPARYCCLSGCTQQDLLTLCPY (disulfide I:10-II:11, I:22-II:24, II:10-II:15) [INSL3, Insulin-like peptide 3] is ____.
Response line: 7.87

###

subject_of_test: RXFP2 (Homo sapiens)
method_description: INSL3-stimulated cAMP assay in HEK293 with BacMam expression of human RXFP2
Type: cell-based
Design: expressed in transfected cells; host or cells: HEK293-MSRII, BacMam transduction (MOI 5)
condition_description: HTRF primary assay, read-out: EC50 cAMP in HEK293 expressing human RXFP2
Bridge positions count the residues as written; N and C are the ends. Ends that are not written are not given here. I, II: the chains in the order shown.
parameter_measured: pEC50
Just so you know, pEC50 here is -log10 of the concentration in molar units; reply with that number alone.

Prompt line: Request - read-out pEC50 | tested on RXFP2 (Homo sapiens) | substance I: PTPEMREKLCGHHFVRALVRVCGGPRWSTEA / II: AAATNPARYCCLSGCTQQDLLTLCPY (disulfide I:10-II:11, I:22-II:24, II:10-II:15) [INSL3, Insulin-like peptide 3]
Response line: 10.32
